The origin of these recorded values is ChEMBL document CHEMBL1139863.

- Tested on: Trypanosoma brucei rhodesiense
- run description: Antitrypanosomal activity against Trypanosoma brucei rhodesiense
- Assay type: functional, organism-based
Assignment: determine reported log10(IC50) for the given compounds.
# values: log10(IC50), units nM

Please give the measured log10(IC50) for this compound: N=C(N)c1ccc(-c2cc(-c3cccc(C(=N)N)c3)on2)cc1 0.54

I would be grateful if you could share the reported log10(IC50) for CC(C)NC(=N)c1ccc(-c2cc(-c3cccc(C(=N)NC(C)C)c3)no2)cc1 . 2.69

Return reported log10(IC50); argument: N=C(N)c1ccc(-c2cc(-c3cccc(C(=N)N)c3)no2)cc1 0.80

Suppose we examine the compound N=C(N)c1cccc(-c2cc(-c3ccc(C(=N)N)cc3Cl)no2)c1 ; what log10(IC50) value has been reported? 1.06

Recorded log10(IC50) of N=C(N)c1cccc(-c2cc(-c3cccc(C(=N)N)c3)on2)c1 , please. 1.46

So what's the measured log10(IC50) for this one? N=C(N)c1cccc(-c2cc(-c3ccc(C(=N)N)cc3Cl)on2)c1 0.80

State the recorded log10(IC50) for this entry: c1cc(C2=NCCN2)cc(-c2cc(-c3ccc(C4=NCCN4)cc3)on2)c1 3.19

Reported log10(IC50) for COc1cc(C(=N)N)ccc1-c1cc(-c2cccc(C(=N)N)c2)on1 : what is it? 0.77

Need log10(IC50), item COc1cc(C(=N)N)ccc1-c1cc(-c2ccc(C(=N)N)cc2OC)on1 1.11

Recorded log10(IC50) for c1cc(C2=NCCN2)cc(-c2cc(-c3cccc(C4=NCCN4)c3)on2)c1 , please? 4.27

May I ask what log10(IC50) has been recorded for COc1cc(C(=N)N)ccc1-c1cc(-c2ccc(C(=N)N)cc2)no1 ? 1.03

Endpoint output: log10(IC50) of CC(C)NC(=N)c1ccc(-c2cc(-c3cccc(C(=N)NC(C)C)c3)on2)cc1 . Value? 2.50

Tell me the measured log10(IC50) of N=C(N)c1ccc(-c2cc(-c3ccc(C(=N)N)cc3[N+](=O)[O-])no2)cc1 , please. 1.51

Quick check: log10(IC50) of Nc1nc(N)nc(Nc2ccc([As]3SCC(CO)S3)cc2)n1 (stereo not drawn) ? 0.81

Return reported log10(IC50); argument: N=C(N)c1ccc(-c2cc(-c3ccc(C(=N)N)cc3Cl)no2)cc1 1.37

Give the measured log10(IC50) of CC(C)NC(=N)c1ccc(-c2cc(-c3ccc(C(=N)NC(C)C)cc3)on2)cc1 . 2.29

Look at this compound and give its reported log10(IC50). N=C(N)c1ccc(-c2cc(-c3ccc(C(=N)N)cc3[N+](=O)[O-])on2)cc1 1.14

Which log10(IC50) value belongs to c1cc(-c2cc(-c3ccc(C4=NCCN4)cc3)on2)ccc1C1=NCCN1 ? 1.94

----------
Exercise: for every item that follows, state its recorded pIC50.
- Test system: Plasmodium falciparum
- run description: Antiplasmodial activity against chloroquine-resistant Plasmodium falciparum K1
- Type: functional, organism-based
// returns pIC50 (minus log10 of molar concentration), number only

I'd like to know its pIC50. The compound in question is N=C(N)c1ccc(-c2cc(-c3ccc(C(=N)N)cc3)on2)cc1 7.65

Query (compound): CC(C)NC(=N)c1ccc(-c2cc(-c3ccc(C(=N)NC(C)C)cc3)on2)cc1 ; field requested: pIC50 8.18

Look up pIC50 for this compound: c1cc(-c2cc(-c3ccc(C4=NCCN4)cc3)on2)ccc1C1=NCCN1 8.39

Give its pIC50 value. Item: c1cc(C2=NCCN2)cc(-c2cc(-c3cccc(C4=NCCN4)c3)on2)c1 6.64

Entry N=C(N)c1cccc(-c2cc(-c3ccc(C(=N)N)cc3Cl)on2)c1 has what pIC50? 7.73

Which pIC50 value is on record for COc1cc(C(=N)N)ccc1-c1cc(-c2cccc(C(=N)N)c2)on1 ? 8.05

I am curious: what pIC50 value has been reported for N=C(N)c1cccc(-c2cc(-c3cccc(C(=N)N)c3)on2)c1 ? 8.04

----------
- Test system: Plasmodium falciparum
- run description: Antiplasmodial activity against chloroquine-resistant Plasmodium falciparum K1
- Type: functional, organism-based
For each entry below, report its IC50 value.
Numbers only here, please. The scale is nM.

Report IC50 for N=C(N)c1ccc(-c2cc(-c3ccc(C(=N)N)cc3[N+](=O)[O-])no2)cc1 tested on Plasmodium falciparum. 14.9

// lookup IC50 | system=Plasmodium falciparum | key= N=C(N)c1ccc(-c2cc(-c3cccc(C(=N)N)c3)no2)cc1 57.8

Param readout = IC50; param system = Plasmodium falciparum; param query = COc1cc(C(=N)N)ccc1-c1cc(-c2ccc(C(=N)N)cc2)on1 ; response: value 66.3

Hi! What's the reported IC50 for N=C(N)c1ccc(-c2cc(-c3ccc(C(=N)N)cc3Cl)on2)cc1 on Plasmodium falciparum? 7.9

Lookup: IC50 / Plasmodium falciparum / CC(C)NC(=N)c1cccc(-c2cc(-c3cccc(C(=N)NC(C)C)c3)on2)c1 43.1

Write down the reported IC50 of N=C(N)c1ccc(-c2cc(-c3cccc(C(=N)N)c3)on2)cc1 , test system: Plasmodium falciparum. 2.5

Give IC50 (Plasmodium falciparum) of the following compound: c1cc(C2=NCCN2)cc(-c2cc(-c3ccc(C4=NCCN4)cc3)on2)c1 51.2

Test system Plasmodium falciparum; read-out IC50; what value for COc1cc(C(=N)N)ccc1-c1cc(-c2ccc(C(=N)N)cc2OC)on1 ? 6.1

Item N=C(N)c1ccc(-c2cc(-c3ccc(C(=N)N)cc3[N+](=O)[O-])on2)cc1 with Plasmodium falciparum - IC50? 14.9

Find the measured IC50: item COc1cc(C(=N)N)ccc1-c1cc(-c2cccc(C(=N)N)c2)no1 , target or system Plasmodium falciparum. 3.5

Report IC50 for COc1cc(C(=N)N)ccc1-c1cc(-c2ccc(C(=N)N)cc2)no1 tested on Plasmodium falciparum. 6

API: value(readout=IC50, system=Plasmodium falciparum) for record N=C(N)c1ccc(-c2cc(-c3ccc(C(=N)N)cc3Cl)no2)cc1 55.5

What reported IC50 corresponds to CC(C)NC(=N)c1ccc(-c2cc(-c3cccc(C(=N)NC(C)C)c3)no2)cc1 on Plasmodium falciparum? 10.6

Lab note: need IC50 with Plasmodium falciparum for entry CC(C)NC(=N)c1ccc(-c2cc(-c3cccc(C(=N)NC(C)C)c3)on2)cc1 , please look it up. 34.7

Notebook entry, Plasmodium falciparum assay: IC50 of N=C(N)c1cccc(-c2cc(-c3ccc(C(=N)N)cc3[N+](=O)[O-])no2)c1 = ? 30.4

Value wanted: IC50 (Plasmodium falciparum) of entry N=C(N)c1cccc(-c2cc(-c3ccc(C(=N)N)cc3Cl)no2)c1 14.1

Look up IC50 with Plasmodium falciparum for this compound: N=C(N)c1cccc(-c2cc(-c3ccc(C(=N)N)cc3[N+](=O)[O-])on2)c1 25.9

Can you look up IC50 on Plasmodium falciparum for C[C@@H]1CC[C@H]2[C@@H](C)C(=O)O[C@@H]3O[C@@]4(C)CC[C@@H]1[C@]32OO4 [ARTEMISININ] ? 6.7

Observed IC50 on Plasmodium falciparum for c1cc(C2=NCCN2)cc(-c2cc(-c3ccc(C4=NCCN4)cc3)no2)c1 , please. 77
